ASSAYED SYSTEM: UniProt Q9YQ12
pKi: −log10 of the molar value.
Respond with Yes for pKi values of 7 and above, No for values below.

MOLECULE	CLASS LABEL
CC(=O)c1ccc(N2C[C@@H](C(=O)N[C@@H](Cc3ccccc3)C(O)C[C@H](Cc3ccccc3)NC(=O)COc3c(C)cccc3C)OC2=O)cc1 (stereo partly specified)	Yes

*Q* # bool: pKi of Cc1cccc(C)c1OCC(=O)N[C@@H](Cc1ccccc1)CC(O)[C@H](Cc1ccccc1)NC(=O)[C@@H]1CN(c2ccccc2)C(=O)O1 (stereo partly specified) >= 7
*A* Yes

*Q* Would you kindly repeat that for COC(=O)NC(C(=O)N[C@@H](Cc1ccccc1)C(O)CN(CC(C)C)NC(=O)C1CN(c2ccccc2)C(=O)O1)C(C)(C)C (stereo partly specified) ?
*A* Yes

*Q* Would you kindly repeat that for O=C(Cc1ccc2c(c1)OCO2)N[C@H](CC[C@H](Cc1ccccc1)NC(=O)[C@@H]1CN(c2ccccc2)C(=O)O1)Cc1ccccc1 ?
*A* No

*Q* Would you kindly repeat that for O=C(N[C@@H](Cc1ccccc1)C(O)C[C@H](Cc1ccccc1)NC(=O)[C@@H]1CN(c2cccc(C(F)(F)F)c2)C(=O)O1)OCc1ccccn1 (stereo partly specified) ?
*A* Yes

*Q* Would you kindly repeat that for CC(=O)NC(C(=O)N[C@@H](Cc1ccccc1)CC(O)[C@H](Cc1ccccc1)NC(=O)[C@@H]1CN(c2ccc(F)c(F)c2)C(=O)O1)C(C)C (stereo partly specified) ?
*A* Yes

----------
ASSAYED SYSTEM: Protease (Human immunodeficiency virus 1, UniProt Q9YQ12)
Sequence (Q9YQ12 whole entry): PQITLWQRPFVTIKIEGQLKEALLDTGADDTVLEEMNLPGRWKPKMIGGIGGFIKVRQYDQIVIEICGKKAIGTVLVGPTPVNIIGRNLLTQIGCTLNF
pKi: −log10 of the molar value.
Respond with fulfilled for pKi values of 7 and above, not fulfilled for values below.

Look over these answered cases.
COMPOUND	ASSAYED SYSTEM	CLASS LABEL
Cc1cccc(C)c1OCC(=O)N[C@@H](Cc1ccccc1)C(O)C[C@H](Cc1ccccc1)NC(=O)[C@@H]1CN(c2cccc(C(F)(F)F)c2)C(=O)O1 (stereo partly specified)	Protease (Human immunodeficiency virus 1, UniProt Q9YQ12)	fulfilled
CC(=O)c1cccc(N2CC(C(=O)NN(Cc3ccc(-c4ccccn4)cc3)CC(O)[C@H](Cc3ccccc3)NC(=O)[C@@H]3CN(c4cccc(C(C)=O)c4)C(=O)O3)OC2=O)c1 (stereo partly specified)	Protease (Human immunodeficiency virus 1, UniProt Q9YQ12)	not fulfilled
CC(=O)NC(C(=O)N[C@@H](Cc1ccccc1)CC(O)[C@H](Cc1ccccc1)NC(=O)[C@@H]1CN(c2cccc(C(F)(F)F)c2)C(=O)O1)C(C)C (stereo partly specified)	Protease (Human immunodeficiency virus 1, UniProt Q9YQ12)	fulfilled

*Q* # bool: pKi of CC(=O)c1cccc(N2C[C@@H](C(=O)N[C@@H](Cc3ccccc3)C(O)C[C@H](Cc3ccccc3)NC(=O)COc3c(C)cccc3C)OC2=O)c1 (stereo partly specified) >= 7
*A* fulfilled

*Q* Would you kindly repeat that for Cc1cccc(C)c1OCC(=O)N[C@@H](Cc1ccccc1)C(O)C[C@H](Cc1ccccc1)NC(=O)[C@@H]1CN(c2ccccc2)C(=O)O1 (stereo partly specified) ?
*A* not fulfilled

*Q* Would you kindly repeat that for COC(=O)NC(C(=O)N[C@@H](Cc1ccccc1)CC(O)[C@H](Cc1ccccc1)NC(=O)[C@@H]1CN(c2ccccc2)C(=O)O1)C(C)(C)C (stereo partly specified) ?
*A* fulfilled
